system: Echinochloa crus-galli (ECHCG); test: Post-emergence herbicidal activity, ECHCG; type: in vivo; settings: 1000 g/ha, sprayed post-emergence (8 days cultivation), evaluated after 13 days, damage score 0-5
As shown below, each of these molecules has a reported Control of weed species after post-emergence application: ECHCG value.
measure: Control of weed species after post-emergence application: ECHCG

# molecule, reported.result
measured = [
    ("CCC(=O)N(C(=O)CC)c1ncc(-c2cncnc2)nc1C(F)(F)F [Compound I12]", 3),
    ("COCCC(=O)N(C(=O)CCOC)c1ncc(-c2cncc(F)c2)nc1C(F)(F)F [Compound I11]", 5),
    ("CCC(=O)N(C(=O)CC)c1ncc(-c2cncc(F)c2)nc1C(F)(F)F [Compound I1]", 4),
    ("CC(=O)N(C)c1ncc(-c2cncc(F)c2)nc1C [Compound I6]", 4),
    ("CC(=O)N(C(C)=O)c1ncc(-c2cncc(F)c2)nc1C(F)(F)F [Compound I4]", 3),
    ("COCCC(=O)Nc1ncc(-c2cncc(F)c2)nc1C [Compound I10]", 3),
    ("CCC(=O)Nc1ncc(-c2cncc(F)c2)nc1C [Compound I2]", 4),
    ("CC(=O)Nc1ncc(-c2cncc(F)c2)nc1C(F)(F)F [Compound I3]", 3),
    ("CC(=O)Nc1ncc(-c2cncc(F)c2)nc1C [Compound I9]", 2),
    ("CC(=O)N(C(C)=O)c1ncc(-c2cncnc2)nc1C(F)(F)F [Compound I8]", 4),
    ("CC(=O)N(C(C)=O)c1ncc(-c2cncc(F)c2)nc1C [Compound I5]", 2),
]

====

Test system: Setaria faberi (SETFA)
Experiment: Post-emergence herbicidal activity, SETFA
Assay type: in vivo
Conditions: 1000 g/ha, sprayed post-emergence (8 days cultivation), evaluated after 13 days, damage score 0-5
Protocol: Seeds of a variety of test species were sown in standard soil in pots: Triticum aestivium (TRZAW), Avena fatua (AVEFA), Alopecurus myosuroides (ALOMY), Echinochloa crus-galli (ECHCG), Lolium perenne (LOLPE), and Setaria faberi (SETFA). […] After 13 days, the test was evaluated (5=total damage to plant; 0=no damage to plant).
measure: Control of weed species after post-emergence application: SETFA

# molecule, reported.result
data = [
    ("CCC(=O)N(C(=O)CC)c1ncc(-c2cncnc2)nc1C(F)(F)F [Compound I12]", 4),
    ("CCC(=O)N(C(=O)CC)c1ncc(-c2cncc(F)c2)nc1C(F)(F)F [Compound I1]", 4),
    ("CC(=O)Nc1ncc(-c2cncc(F)c2)nc1C [Compound I9]", 3),
    ("CC(=O)N(C(C)=O)c1ncc(-c2cncnc2)nc1C(F)(F)F [Compound I8]", 5),
    ("COCCC(=O)Nc1ncc(-c2cncc(F)c2)nc1C [Compound I10]", 2),
]

====

test system: Triticum aestivium (TRZAW); test: Pre-emergence herbicidal activity, TRZAW; format: in vivo; design: key: 5=total damage to plant; 0=no damage to plant; settings: 1000 g/ha, sprayed pre-emergence, evaluated after 13 days, damage score 0-5
As shown below, each of these compounds has a reported Control of weed species after pre-emergence application: TRAZW value.
measure: Control of weed species after pre-emergence application: TRAZW

# compound, reported.result
measured = [
    ("CC(=O)N(C(C)=O)c1ncc(-c2cncc(F)c2)nc1C [Compound I5]", 0),
    ("CC(=O)N(C(C)=O)c1ncc(-c2cncc(F)c2)nc1C(F)(F)F [Compound I4]", 3),
    ("COCCC(=O)Nc1ncc(-c2cncc(F)c2)nc1C [Compound I10]", 0),
    ("COCCC(=O)N(C(=O)CCOC)c1ncc(-c2cncc(F)c2)nc1C(F)(F)F [Compound I11]", 1),
    ("CC(=O)Nc1ncc(-c2cncc(F)c2)nc1C(F)(F)F [Compound I3]", 0),
    ("CCC(=O)N(C(=O)CC)c1ncc(-c2cncnc2)nc1C(F)(F)F [Compound I12]", 0),
    ("CC(=O)N(C(C)=O)c1ncc(-c2cncnc2)nc1C(F)(F)F [Compound I8]", 0),
    ("CC(=O)N(C)c1ncc(-c2cncc(F)c2)nc1C [Compound I6]", 0),
    ("CC(=O)Nc1ncc(-c2cncc(F)c2)nc1C [Compound I9]", 0),
    ("CCC(=O)N(C(=O)CC)c1ncc(-c2cncc(F)c2)nc1C(F)(F)F [Compound I1]", 0),
    ("CCC(=O)Nc1ncc(-c2cncc(F)c2)nc1C [Compound I2]", 0),
]
